Reported chemical recovery by SPE of plasma values follow for various molecules
test: chemical recovery by SPE of plasma after PDMS sampling; higher = better extraction; conditions: pooled human plasma; extraction method: HLB SPE of plasma after PES; equilibration time (d): 1
Quick reminder: number only, in %, skip the unit.

Molecule: CCCN(CCOc1c(Cl)cc(Cl)cc1Cl)C(=O)NC=O
chemical recovery by SPE of plasma / %: 3.65
--
Molecule: CC(=O)Nc1ccc(O)c(C(=O)O)c1
chemical recovery by SPE of plasma / %: 56.2
--
Molecule: c1cc2ccc3ccc4ccc5cccc6c(c1)c2c3c4c56
chemical recovery by SPE of plasma / %: 2.59
--
Molecule: CCc1cccc(C)c1N(C(=O)CCl)C(C)COC (stereo unspecified)
chemical recovery by SPE of plasma / %: 0.504
--
Molecule: COC[P+](c1ccccc1)(c1ccccc1)c1ccccc1
chemical recovery by SPE of plasma / %: 50.8
--
Molecule: CCCCc1nc(Cl)c(CO)n1Cc1ccc(-c2ccccc2-c2nnn[nH]2)cc1
chemical recovery by SPE of plasma / %: 44.8
--
Molecule: C[C@]12CC(=O)[C@H]3[C@@H](CCC4=CC(=O)CC[C@@]43C)[C@@H]1CC[C@@H]2O
chemical recovery by SPE of plasma / %: 34.3
--
Molecule: CN1CCN(C)C1=O
chemical recovery by SPE of plasma / %: 4.06

# get_value(readout='chemical recovery by SPE of plasma', item= CCCc1nc2c(C)cc(-c3nc4ccccc4n3C)cc2n1Cc1ccc(-c2ccccc2C(=O)O)cc1 ) 43.6

---

assay: chemical recovery from spiked human plasma; higher = better extraction; conditions: pooled human plasma; extraction method: solvent precipitation (ACN + hexane)
Readout Kind: chemical recovery (%)
Quick reminder: number only, in %, skip the unit.

Completed entries (count: 3):
Compound: CNCC[C@H](Oc1cccc2ccccc12)c1cccs1
chemical recovery (%): 59.7

Compound: C[C@H](CCC(=O)O)[C@H]1CC[C@H]2[C@@H]3C(=O)C[C@@H]4C[C@H](O)CC[C@]4(C)[C@H]3CC[C@]12C
chemical recovery (%): 65.4

Compound: N#Cc1nn(-c2c(Cl)cc(C(F)(F)F)cc2Cl)c(N)c1[S+]([O-])C(F)(F)F (stereo not drawn)
chemical recovery (%): 40.3

# get_value(readout='chemical recovery', item= CCOP(=S)(OCC)SCn1nnc2ccccc2c1=O ) 69.5

# get_value(readout='chemical recovery', item= Cc1c(Cl)cccc1Nc1ccccc1C(=O)O ) 47.5

# get_value(readout='chemical recovery', item= Cc1cc(Cl)ccc1OCCCC(=O)O ) 66.9

# get_value(readout='chemical recovery', item= N#Cc1cc(Cl)c(O)c(Cl)c1 ) 74.3

# get_value(readout='chemical recovery', item= CC[C@@H](C(=O)[C@@H](C)[C@@H](O)[C@H](C)[C@@H]1O[C@@H]([C@@H](CC)C(=O)O)CC[C@@H]1C)[C@H]1O[C@]2(C=C[C@@H](O)[C@]3(CC[C@@](C)([C@H]4CC[C@](O)(CC)[C@H](C)O4)O3)O2)[C@H](C)C[C@@H]1C ) 51.9

---

Reported chemical recovery by SPE of plasma values follow for various molecules
experiment: chemical recovery by SPE of plasma after PDMS sampling; higher = better extraction; conditions: pooled human plasma; extraction method: HLB SPE of plasma after PES; equilibration time (d): 1
A bare number is not enough; add the unit after it.

Completed entries (count: 5):
Molecule: OC(c1ccc(Cl)cc1)(c1ccc(Cl)cc1)C(Cl)(Cl)Cl
chemical recovery by SPE of plasma: 11.5%
--
Molecule: CCCCC(C#N)(Cn1cncn1)c1ccc(Cl)cc1 (centres undefined)
chemical recovery by SPE of plasma: 1.71%
--
Molecule: CC(C)(C#N)c1cc(Cn2cncn2)cc(C(C)(C)C#N)c1
chemical recovery by SPE of plasma: 14.8%
--
Molecule: c1cc2c3c(c1)ccc1cccc(c13)C2
chemical recovery by SPE of plasma: 1.81%
--
Molecule: N#Cc1nn(-c2c(Cl)cc(C(F)(F)F)cc2Cl)c(N)c1SC(F)(F)F [Fipronil sulfide]
chemical recovery by SPE of plasma: 21.2%

# get_value(readout='chemical recovery by SPE of plasma', item= CC(C)(Oc1ccc(CCNC(=O)c2ccc(Cl)cc2)cc1)C(=O)O [Bezafibrate] ) 52.7%

# get_value(readout='chemical recovery by SPE of plasma', item= CCOP(=O)(OCC)OCC [Triethylphosphate] ) 12.1%

# get_value(readout='chemical recovery by SPE of plasma', item= C[C@]12CCC(=O)C=C1CC[C@@H]1[C@@H]2CC[C@]2(C)C(=O)CC[C@@H]12 ) 1.37%

# get_value(readout='chemical recovery by SPE of plasma', item= COc1nc(C)nc(NC(=O)NS(=O)(=O)c2ccccc2CCC(F)(F)F)n1 ) 48.5%

---

test: chemical recovery by SPE of plasma after PDMS sampling; higher = better extraction; details: pooled human plasma; extraction method: HLB SPE of plasma after PES; equilibration time (d): 1
Reported chemical recovery by SPE of plasma values follow for various compounds
Quick reminder: number only, in %, skip the unit.

Completed entries (count: 8):
Compound: c1ccc2[nH]nnc2c1 [1H-Benzotriazole]
Readout Kind: chemical recovery by SPE of plasma
Units: %
Measured: 47.4
--
Compound: O=C1Nc2ccc(Cl)cc2C(C#CC2CC2)(C(F)(F)F)O1 (configuration not stated) [Efavirenz]
Readout Kind: chemical recovery by SPE of plasma
Units: %
Measured: 4.94
--
Compound: CCNc1nc(NC(C)(C)C)nc(SC)n1 [Terbutryn]
Readout Kind: chemical recovery by SPE of plasma
Units: %
Measured: 1.3
--
Compound: Oc1ccc(Cl)cc1Cl [2,4-Dichlorophenol]
Readout Kind: chemical recovery by SPE of plasma
Units: %
Measured: 49.3
--
Compound: CC1(C)CCC(Cc2ccc(Cl)cc2)C1(O)Cn1cncn1 (configuration not stated) [Metconazole]
Readout Kind: chemical recovery by SPE of plasma
Units: %
Measured: 2.06
--
Compound: O=P(OCCCl)(OCCCl)OCCCl [Tris(2-chloroethyl)phosphate]
Readout Kind: chemical recovery by SPE of plasma
Units: %
Measured: 15
--
Compound: CC(=O)[C@@]1(O)CC[C@H]2[C@@H]3C[C@H](C)C4=CC(=O)C=C[C@]4(C)[C@@]3(F)[C@@H](O)C[C@@]21C [Fluorometholone]
Readout Kind: chemical recovery by SPE of plasma
Units: %
Measured: 45.1
--
Compound: C[C@]12C=CC(=O)C=C1CC[C@H]1[C@@H]3C[C@@H](O)[C@](O)(C(=O)CO)[C@@]3(C)C[C@H](O)[C@@]12F [Triamcinolone]
Readout Kind: chemical recovery by SPE of plasma
Units: %
Measured: 55.2

# get_value(readout='chemical recovery by SPE of plasma', item= O=S(=O)(O)c1ccccc1 [Benzenesulfonic acid] ) 3.18

# get_value(readout='chemical recovery by SPE of plasma', item= CCCC1O[C@@H]2C[C@H]3[C@@H]4CCC5=CC(=O)C=C[C@]5(C)[C@H]4[C@@H](O)C[C@]3(C)[C@]2(C(=O)CO)O1 (some centres not stated) [Budesonide] ) 35.3

# get_value(readout='chemical recovery by SPE of plasma', item= C#CC(C)(C)NC(=O)c1cc(Cl)cc(Cl)c1 [Propyzamide] ) 5.12

# get_value(readout='chemical recovery by SPE of plasma', item= COC(=O)Nc1nc2ccccc2[nH]1 [Carbendazim] ) 31.6

# get_value(readout='chemical recovery by SPE of plasma', item= Cc1c(C(C)C)c(=O)n(-c2ccccc2)n1C [Propyphenazone] ) 4.36

# get_value(readout='chemical recovery by SPE of plasma', item= COc1cc(OC)nc(NC(=O)NS(=O)(=O)c2ncccc2C(=O)N(C)C)n1 [Nicosulfuron] ) 51.6

---

test: chemical recovery from spiked human plasma; higher = better extraction; conditions: pooled human plasma; extraction method: PES+SPE (3 d PDMS equilibration then HLB SPE)
Reported chemical recovery values follow for various molecules
Quick reminder: number only, in %, skip the unit.

Molecule: CNC1=C(c2cccc(C(F)(F)F)c2)C(=O)C(c2ccccc2)O1 (centres undefined) [Flurtamone]
chemical recovery / %: 32.8

Molecule: CCCCOP(=O)(O)OCCCC [Di-n-butyl phosphate]
chemical recovery / %: 42.2

Molecule: OC(Cn1cncn1)(Cn1cncn1)c1ccc(F)cc1F [Fluconazole]
chemical recovery / %: 43.8

Molecule: O=P(O)(O)C(F)(F)C(F)(F)C(F)(F)C(F)(F)C(F)(F)C(F)(F)F [Perfluorohexylphosphonic-acid]
chemical recovery / %: 37.5

Molecule: COCN(COC)c1nc(N(COC)COC)nc(N(COC)COC)n1 [Hexa(methoxymethyl)melamine]
chemical recovery / %: 38.3

Molecule: C=C(C)C(=O)NCCCN(C)C [N-(3-Dimethylamino)propyl)methacrylamide]
chemical recovery / %: 42.3

Molecule: CCCOC(=O)c1ccc(O)cc1 [Propylparaben]
chemical recovery / %: 56.4

Molecule: CC(C)c1c(C(=O)Nc2ccccc2)c(-c2ccccc2)c(-c2ccc(F)cc2)n1CC[C@@H](O)C[C@@H](O)CC(=O)O [Atorvastatin]
chemical recovery / %: 32.2

Molecule: O=C(O)C(F)(F)C(F)(F)C(F)(F)C(F)(F)C(F)(F)C(F)(F)C(=O)O [Perfluorosuberic-acid-]
chemical recovery / %: 0.975

Molecule: CC(C)c1ccc(N)cc1 [4-Isopropylaniline]
chemical recovery / %: 6.67

# get_value(readout='chemical recovery', item= CON(C)C(=O)Nc1ccc(Cl)c(Cl)c1 [Linuron] ) 46.9
